- Test system: Ba/F3 cells expressing L858R/T790M/C797S (EGFR-LTC)
- PROTOCOL DESCRIPTION: Growth inhibition (GI50) of Ba/F3 cells expressing L858R/T790M/C797S (EGFR-LTC), Celltiter glo
- Type: cell-based
- MEASUREMENT PARAMETERS: Mus musculus, BaF3, 72 h
READOUT KIND: GI50

Reference set, count: 4
{"columns": ["COMPOUND", "GI50"],
 "data": [
  ["COc1cc(N2CCC(N(C)CCN(C)C)CC2)c(C)cc1Nc1ncc(Cl)c(Nc2cc(Cl)c(Cl)cc2NS(C)(=O)=O)n1", "500 to 2000 nM"],
  ["COc1nc(N2CCC(N3CCN(C)CC3)CC2)c(C)cc1Nc1ncc(Br)c(Nc2cc3c(cc2NS(C)(=O)=O)CCO3)n1", "1 to 25 nM"],
  ["CN1CCN(C2CCN(c3ccc4cc(Nc5ncc(Cl)c(Nc6cc7c(cc6NS(C)(=O)=O)CCO7)n5)ccc4n3)CC2)CC1", "500 to 2000 nM"],
  ["CN1CCN(C2CCN(c3ccc(Nc4ncc(Br)c(Nc5ccc(F)cc5NS(C)(=O)=O)n4)c(Cl)c3)CC2)CC1", "500 to 2000 nM"]
]}

Ask: I'm curious: which GI50 was measured for COc1cc(N2CCC(N3CCN(C)CC3)CC2)c(C)cc1Nc1ncc(Cl)c(Nc2cc(C(F)(F)F)ccc2NS(C)(=O)=O)n1 tested on Ba/F3 cells expressing L858R/T790M/C797S (EGFR-LTC)?
Result: 100 to 500 nM

Ask: I'm curious: which GI50 was measured for Cc1cc(Nc2ncc(Br)c(Nc3cc(Cl)ccc3NS(C)(=O)=O)n2)c(Cl)cc1N1CCC(N2CCCC(N(C)C)C2)CC1 (stereo not shown) tested on Ba/F3 cells expressing L858R/T790M/C797S (EGFR-LTC)?
Result: 25 to 100 nM

Ask: I'm curious: which GI50 was measured for COc1cc(N2CCC(N3CCN(C)CC3)CC2)c(Cl)cc1Nc1ncc(Cl)c(Nc2ccccc2NS(C)(=O)=O)n1 tested on Ba/F3 cells expressing L858R/T790M/C797S (EGFR-LTC)?
Result: 100 to 500 nM
